tested on: Platelet-derived growth factor receptor alpha (Homo sapiens), P16234 [T674I]; settings: at 0.1 µM
Sequence (P16234 whole entry T674I): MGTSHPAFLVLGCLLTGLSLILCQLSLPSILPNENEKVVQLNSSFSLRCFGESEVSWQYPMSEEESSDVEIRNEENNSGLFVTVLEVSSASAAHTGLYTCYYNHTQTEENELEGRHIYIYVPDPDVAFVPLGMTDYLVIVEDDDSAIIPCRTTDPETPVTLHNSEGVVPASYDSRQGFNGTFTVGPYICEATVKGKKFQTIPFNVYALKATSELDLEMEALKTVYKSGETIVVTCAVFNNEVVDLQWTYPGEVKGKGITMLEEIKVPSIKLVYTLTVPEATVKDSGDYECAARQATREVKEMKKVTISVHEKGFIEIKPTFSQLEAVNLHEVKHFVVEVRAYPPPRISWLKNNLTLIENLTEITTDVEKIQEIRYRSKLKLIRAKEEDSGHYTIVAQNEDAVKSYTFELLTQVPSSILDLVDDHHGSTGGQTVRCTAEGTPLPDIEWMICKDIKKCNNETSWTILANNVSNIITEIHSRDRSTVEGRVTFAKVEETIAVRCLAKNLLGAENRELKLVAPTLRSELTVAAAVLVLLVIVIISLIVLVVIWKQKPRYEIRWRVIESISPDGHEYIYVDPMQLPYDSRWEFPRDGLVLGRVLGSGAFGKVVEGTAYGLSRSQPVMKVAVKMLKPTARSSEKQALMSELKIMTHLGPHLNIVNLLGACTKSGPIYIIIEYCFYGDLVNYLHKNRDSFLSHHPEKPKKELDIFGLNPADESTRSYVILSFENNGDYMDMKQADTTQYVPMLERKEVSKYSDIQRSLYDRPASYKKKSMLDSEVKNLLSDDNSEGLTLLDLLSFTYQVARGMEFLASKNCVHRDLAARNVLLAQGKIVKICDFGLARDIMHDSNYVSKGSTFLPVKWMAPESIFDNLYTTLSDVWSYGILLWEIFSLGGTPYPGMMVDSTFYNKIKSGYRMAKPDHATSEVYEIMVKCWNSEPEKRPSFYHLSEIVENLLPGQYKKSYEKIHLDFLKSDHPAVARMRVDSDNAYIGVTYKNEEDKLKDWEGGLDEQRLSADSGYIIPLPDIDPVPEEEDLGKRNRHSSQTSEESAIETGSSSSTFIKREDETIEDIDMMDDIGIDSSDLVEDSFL
// inhibition lookup, one value per entry
Number only, in %; omit the unit.

Consider the following illustrative entries.
smiles_repr=CCn1c(-c2nonc2N)nc2ccccc21 unit_abbrev=% measured_number=2.43
smiles_repr=Cc1cccc2c1NC(=O)/C2=N\Nc1ccc(S(N)(=O)=O)cc1 unit_abbrev=% measured_number=3.33

Query: Bench note: what inhibition did FC(F)(F)c1cccc(-c2nn3ncccc3c2-c2ccnc(Nc3ccc4c(c3)OCCO4)n2)c1 show?
Result: 2.79

Query: Bench note: what inhibition did CNC(=O)c1cncc(/C=C/c2ccccc2Cl)c1 show?
Result: 2.9

Query: Bench note: what inhibition did O=S(=O)(CCNCc1ccc(-c2ccc3ncnc(Nc4ccc(OCc5cccc(F)c5)c(Cl)c4)c3c2)o1)c1ccccc1 show?
Result: 7.8

Query: Bench note: what inhibition did COc1cc(N2CCN(C(C)C)CC2)ccc1Nc1nc(Nc2ccc(F)cc2C(N)=O)c2cc[nH]c2n1 show?
Result: 1.91

Query: Bench note: what inhibition did NC(=O)c1sc(-n2cnc3ccc(C(F)(F)F)cc32)cc1OCc1ccccc1Br show?
Result: 5.32

Query: Bench note: what inhibition did Cc1cccc(Nc2ncc(-c3ccccc3)o2)c1 show?
Result: 7.94

Query: Bench note: what inhibition did COC(=O)Nc1nc2ccc(Oc3ccc(NC(=O)Nc4cccc(Cl)c4)cc3)cc2[nH]1 show?
Result: 76.6

Query: Bench note: what inhibition did Nc1ncc(-c2cccc(S(N)(=O)=O)c2)c2scc(-c3ccc(F)c(Cl)c3)c12 show?
Result: 4.52

Query: Bench note: what inhibition did COc1ccc(-c2oc3ncnc(N)c3c2-c2ccc(NC(=O)Nc3cc(C(F)(F)F)ccc3F)cc2)cc1 show?
Result: 18

Query: Bench note: what inhibition did CC(=O)NCc1cccc(C#Cc2cncnc2Nc2ccc(OCc3cccc(F)c3)c(Cl)c2)c1 show?
Result: 2.23

Query: Bench note: what inhibition did CS(=O)(=O)CCNCc1ccc(-c2ccc3ncnc(Nc4ccc(OCc5ccccc5)c(C(F)(F)F)c4)c3c2)o1 show?
Result: 3.58

Query: Bench note: what inhibition did CS(=O)(=O)CCNCc1coc(-c2ccc3ncnc(Nc4ccc(OCc5ccccc5)cc4)c3c2)c1 show?
Result: 3.65

Query: Bench note: what inhibition did CN1CCC(n2cnc(-c3ccc(F)cc3)c2-c2ccnc(Nc3ccccc3)n2)CC1 show?
Result: 5.9

Query: Bench note: what inhibition did CCn1c(-c2nonc2N)nc2cnc(Oc3cccc(NC(=O)c4ccc(N(C)C)cc4)c3)cc21 show?
Result: 2.82

Query: Bench note: what inhibition did COc1cc2ncn(-c3cc(OCc4ccccc4C(F)(F)F)c(C(=O)N(C)C)s3)c2cc1OC show?
Result: 2.17

Query: Bench note: what inhibition did CC(C)(CO)CNC(=O)c1ccc2c(c1)/C(=N/Nc1ccc(S(N)(=O)=O)cc1)C(=O)N2 show?
Result: -0.15
